For reference, pIC50 measured on RAC-alpha serine/threonine-protein kinase (Homo sapiens, UniProt P31749):
*1 amine or outer side, *2 acyl side, *3 side chain or, on linkers, in order; H or OH if unused. Where a SMILES comes first, the peptide text is derived from it. Bridges are numbered along the chain shown (N, C = ends). [ ]: non-standard residue; d: D form. N(6-aminohexyl)Gly = O=C(CN(CCCCCCN[*:3])[*:1])[*:2]; NGly(3-aminopropyl) = O=C(CN(CCCN[*:3])[*:1])[*:2]; N(2-Aminoethyl)Gly = O=C(CN(CCN[*:3])[*:1])[*:2]; Gly(N-(CH2)6NH2) = NCCCCCCNCC(=O)O; Gly(N-2-aminoethyl) = NCCNCC(=O)O; Gly(N(CH2)3NH2) = NCCCNCC(=O)O; hLeu = CC(C)CC[C@H](N)C(=O)O; Nva = CCC[C@H](N)C(=O)O; Dap = NC[C@H](N)C(=O)O; CO = O=C([*:1])[*:2]; Nlys = NCCCCNCC(=O)O
Please keep in mind that pIC50 is minus log10 of the molar concentration; only the number is needed.

Below: 3 compounds and their reported pIC50.
CCC[C@H](NC(=O)[C@H](CCCNC(=N)N)NC(=O)CN(CCCN)C(=O)[C@@H](N)CCCNC(=N)N)C(=O)N[C@@H](Cc1ccc(O)cc1)C(=O)N[C@@H](CN)C(=O)N[C@@H](CCC(C)C)C(=O)N(CCCCN)CC(N)=O (H-R[Gly(N(CH2)3NH2)]R[Nva]Y[Dap][hLeu][Nlys]-NH2): 6.89
CCC[C@H](NC(=O)[C@H](CCCN=C(N)N)NC(=O)CN(CCN)C(=O)[C@@H](N)CCCN=C(N)N)C(=O)N[C@@H](Cc1ccc(O)cc1)C(=O)N[C@@H](CN)C(=O)N[C@@H](CCC(C)C)C(=O)N(CCCCN)CC(N)=O (H-R[Gly(N-2-aminoethyl)]R[Nva]Y[Dap][hLeu][Nlys]-NH2): 6.75
CCC[C@@H]1NC(=O)[C@H](CCCNC(=N)N)NC(=O)CNCCNC(=O)NCCN(CC(N)=O)C(=O)[C@H](CCC(C)C)NC(=O)[C@H](CN)NC(=O)[C@H](Cc2ccc(O)cc2)NC1=O (H-[N(2-Aminoethyl)Gly]R[Nva]Y[Dap][hLeu][N(2-Aminoethyl)Gly]-NH2; linker 1-7 via CO): 6.41

The compound listed as CCC[C@H](NC(=O)[C@H](CCCNC(=N)N)NC(=O)CN(CCCCCCN)C(=O)[C@@H](N)CCCNC(=N)N)C(=O)N[C@@H](Cc1ccc(O)cc1)C(=O)N[C@@H](CN)C(=O)N[C@@H](CCC(C)C)C(=O)N(CCCN)CC(N)=O (H-R[Gly(N-(CH2)6NH2)]R[Nva]Y[Dap][hLeu][Gly(N(CH2)3NH2)]-NH2) shows pIC50 equal to 6.96

Measured pIC50 of CCC[C@H](NC(=O)[C@H](CCCNC(=N)N)NC(=O)CN(CCCCN)C(=O)[C@@H](N)CCCNC(=N)N)C(=O)N[C@@H](Cc1ccc(O)cc1)C(=O)N[C@@H](CN)C(=O)N[C@@H](CCC(C)C)C(=O)N(CCCCN)CC(N)=O (H-R[Nlys]R[Nva]Y[Dap][hLeu][Nlys]-NH2) : 6.89

Please fill in: pIC50 reported for CCC[C@H](NC(=O)[C@H](CCCN=C(N)N)NC(=O)CN(CCCCCCN)C(=O)[C@@H](N)CCCN=C(N)N)C(=O)N[C@@H](Cc1ccc(O)cc1)C(=O)N[C@@H](CN)C(=O)N[C@@H](CCC(C)C)C(=O)N(CCN)CC(N)=O (H-R[Gly(N-(CH2)6NH2)]R[Nva]Y[Dap][hLeu][Gly(N-2-aminoethyl)]-NH2) = 6.49

The compound identified as CCC[C@@H]1NC(=O)[C@H](CCCNC(=N)N)NC(=O)CN(C(=O)[C@@H](N)CCCNC(=N)N)CCCNC(=O)NCCCCCCN(CC(N)=O)C(=O)[C@H](CCC(C)C)NC(=O)[C@H](CN)NC(=O)[C@H](Cc2ccc(O)cc2)NC1=O (H-R[NGly(3-aminopropyl)]R[Nva]Y[Dap][hLeu][N(6-aminohexyl)Gly]-NH2; linker 2-8 via CO) registered its pIC50 at 6.49

// pIC50 lookup, compound = CCC[C@H](NC(=O)[C@H](CCCN=C(N)N)NC(=O)CN(CCCCCCN)C(=O)[C@@H](N)CCCN=C(N)N)C(=O)N[C@@H](Cc1ccc(O)cc1)C(=O)N[C@@H](CN)C(=O)N[C@@H](CCC(C)C)C(=O)N(CCCCN)CC(N)=O (H-R[Gly(N-(CH2)6NH2)]R[Nva]Y[Dap][hLeu][Nlys]-NH2) , result: 6.80

Measured pIC50 of CCC[C@@H]1NC(=O)[C@H](CCCN=C(N)N)NC(=O)CN(C(=O)[C@@H](N)CCCN=C(N)N)CCNC(=O)NCCCCN(CC(N)=O)C(=O)[C@H](CCC(C)C)NC(=O)[C@H](CN)NC(=O)[C@H](Cc2ccc(O)cc2)NC1=O (H-R[N(2-Aminoethyl)Gly]R[Nva]Y[Dap][hLeu][Nlys]-NH2; linker 2-8 via CO) : 6.55
